system: DPX2 cells; details: human
Recorded DPX2 Viability @ 25 μM for the following molecules
recordedEndpoint: DPX2 Viability @ 25 μM (%)

- CO[C@H]1/C=C/O[C@@]2(C)Oc3c(C)c(O)c4c(=O)c(c5oc6cc(N7CCN(CC(C)C)CC7)cc(OCCCCN7CCN(CCn8ccnc8)CC7)c6nc-5c4c3C2=O)NC(=O)/C(C)=C\C=C\[C@H](C)[C@H](O)[C@@H](C)[C@@H](O)[C@@H](C)[C@H](OC(C)=O)[C@@H]1C [Compound 6b]: 57
- CO[C@H]1/C=C/O[C@@]2(C)Oc3c(C)c(O)c4c(=O)c(c5oc6cccc(OCc7cccc(CN8CCN(C(=O)Cc9ccccc9)CC8)c7)c6nc-5c4c3C2=O)NC(=O)/C(C)=C\C=C\[C@H](C)[C@H](O)[C@@H](C)[C@@H](O)[C@@H](C)[C@H](OC(C)=O)[C@@H]1C [Compound 11g]: 70
- CO[C@H]1/C=C/O[C@@]2(C)Oc3c(C)c(O)c4c(=O)c(c5oc6cc(N7CCC(C(=O)O)CC7)cc(C)c6nc-5c4c3C2=O)NC(=O)/C(C)=C\C=C\[C@H](C)[C@H](O)[C@@H](C)[C@@H](O)[C@@H](C)[C@H](OC(C)=O)[C@@H]1C [Compound 29f]: 131
- CO[C@H]1/C=C/O[C@@]2(C)Oc3c(C)c(O)c4c(=O)c(c5oc6cc(C)cc(N7CCN(CCn8ccnc8)CC7)c6nc-5c4c3C2=O)NC(=O)/C(C)=C\C=C\[C@H](C)[C@H](O)[C@@H](C)[C@@H](O)[C@@H](C)[C@H](OC(C)=O)[C@@H]1C [Compound 30e]: 119

* * *

tested on: DPX2 cells; conditions: human
Recorded DPX2 Viability @ 25 μM for the following molecules
recordedEndpoint: DPX2 Viability @ 25 μM (%)

- CO[C@H]1/C=C/O[C@@]2(C)Oc3c(C)c(O)c4c(=O)c(c5oc6cccc(OCCCCN7CCN(C(=O)CN8CCOCC8)CC7)c6nc-5c4c3C2=O)NC(=O)/C(C)=C\C=C\[C@H](C)[C@H](O)[C@@H](C)[C@@H](O)[C@@H](C)[C@H](OC(C)=O)[C@@H]1C [Compound 5e]: 83
- CO[C@H]1/C=C/O[C@@]2(C)Oc3c(C)c(O)c4c(=O)c(c5oc6cc(N7CCN(C(=O)c8cccc(-c9ccccn9)c8)CC7)cc(C)c6nc-5c4c3C2=O)NC(=O)/C(C)=C\C=C\[C@H](C)[C@H](O)[C@@H](C)[C@@H](O)[C@@H](C)[C@H](OC(C)=O)[C@@H]1C [Compound 29b]: 128
- CO[C@H]1/C=C/O[C@@]2(C)Oc3c(C)c(O)c4c(=O)c(c5oc6cc(N7CCN(CC(C)C)CC7)cc(OCc7ccc(CN8CCN(C)CC8)cc7)c6nc-5c4c3C2=O)NC(=O)/C(C)=C\C=C\[C@H](C)[C@H](O)[C@@H](C)[C@@H](O)[C@@H](C)[C@H](OC(C)=O)[C@@H]1C [Compound 17p]: 80
- CO[C@H]1/C=C/O[C@@]2(C)Oc3c(C)c(O)c4c(=O)c(c5oc6cc(N7CCN(CC(C)C)CC7)cc(OCCCCN7CCOCC7)c6nc-5c4c3C2=O)NC(=O)/C(C)=C\C=C\[C@H](C)[C@H](O)[C@@H](C)[C@@H](O)[C@@H](C)[C@H](OC(C)=O)[C@@H]1C [Compound 6a]: 86
